# tested_system: sigma-2 binding site (Cavia porcellus, UniProt H0V073)
# Construct: Guinea pig whole membrane preparations (P2 microsomal fraction); from tissue; host or cells: guinea pig membranes (P2 microsomal fraction), as described by Weber et al; brain inferred from the sister test b489
# Sequence (H0V073 1-176): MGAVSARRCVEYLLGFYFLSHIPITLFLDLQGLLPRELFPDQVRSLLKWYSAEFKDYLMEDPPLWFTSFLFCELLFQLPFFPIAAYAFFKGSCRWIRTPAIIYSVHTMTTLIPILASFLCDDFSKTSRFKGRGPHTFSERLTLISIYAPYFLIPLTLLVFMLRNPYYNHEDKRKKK
# protocol_notes: biochemical
# Design: species or system guinea pig
# test_parameters: Table 10; read-out: SIGMA-2 KI vs. 3H-DTG + PENTAZOCINE MEAN
Could you please mark label 1 for values of Ki below 0.1 µM and label 0 for values at or above it?

// below: answered molecules
{"molecule": "CC(Cc1cccc(Br)c1)NCCCc1ccccc1 (racemic)", "tested_system": "sigma-2 binding site (Cavia porcellus, UniProt H0V073)", "group": "label 1"}
{"molecule": "c1ccc(CCCCNCCc2ccccc2)cc1", "tested_system": "sigma-2 binding site (Cavia porcellus, UniProt H0V073)", "group": "label 0"}
{"molecule": "CC(Cc1cccc2ccccc12)NCCCc1ccccc1 (racemic)", "tested_system": "sigma-2 binding site (Cavia porcellus, UniProt H0V073)", "group": "label 0"}
{"molecule": "OC(CCCN1CCN(c2ncc(F)cn2)CC1)c1ccc(F)cc1 (centres unmarked) [BMY-14802, reference compound]", "tested_system": "sigma-2 binding site (Cavia porcellus, UniProt H0V073)", "group": "label 0"}
{"molecule": "c1ccc(CCCN2CCCCC2)cc1", "tested_system": "sigma-2 binding site (Cavia porcellus, UniProt H0V073)", "group": "label 0"}
{"molecule": "c1ccc(CCCCCNCCCCc2ccccc2)cc1", "tested_system": "sigma-2 binding site (Cavia porcellus, UniProt H0V073)", "group": "label 1"}
{"molecule": "c1ccc(CNCCCCCC2CCCCC2)cc1", "tested_system": "sigma-2 binding site (Cavia porcellus, UniProt H0V073)", "group": "label 1"}

(Q) Hi there! Is Ki for CN(C)CCCCCc1ccccc1 below 0.1 µM, do you know?
(A) label 0

---

# tested_system: sigma-1 binding site (Cavia porcellus, UniProt Q60492)
# Construct: Guinea pig whole membrane preparations (P2 microsomal fraction); from tissue; host or cells: guinea pig membranes (P2 microsomal fraction), as described by Weber et al; brain inferred from the sister test b489
# Sequence (Q60492 whole entry): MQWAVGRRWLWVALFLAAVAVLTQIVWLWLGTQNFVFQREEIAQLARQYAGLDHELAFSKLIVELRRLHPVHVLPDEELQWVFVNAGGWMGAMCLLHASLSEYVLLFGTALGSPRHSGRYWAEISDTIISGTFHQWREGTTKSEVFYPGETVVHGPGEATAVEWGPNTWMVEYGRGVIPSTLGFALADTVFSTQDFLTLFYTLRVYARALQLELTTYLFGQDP
# protocol_notes: biochemical
# Set-up: species or system guinea pig
# test_parameters: SIGMA-1 KI vs. 3H-P[…]
Reported pKi is given for each of the following compounds.
// pKi here means minus log10 of the molar concentration (mol/L)

{"compound": "C[C@@H](Cc1ccccc1)N(CCCc1ccccc1)Cc1ccccc1", "pKi": 6.89}
{"compound": "c1ccc(CCCCCCCNCc2ccccc2)cc1", "pKi": 8.64}
{"compound": "COc1ccc2c(c1)[C@]13CCCC[C@@H]1[C@H](C2)N(C)CC3 [Dextromethorphan, reference compound]", "pKi": 6.28}
{"compound": "c1ccc(CCCCCNCCCCc2ccccc2)cc1", "pKi": 9.32}
{"compound": "C[C@@H](Cc1ccccc1)NCCCCc1ccccc1", "pKi": 7.71}

// C[C@@H](Cc1ccccc1)NCCCCCc1ccccc1 : pKi value = 9.06

// c1ccc(CNCCCCCC2CCCCC2)cc1 : pKi value = 9.09

// CN1CCN(CC/C=C\c2ccccc2)CC1 : pKi value = 7.54

// CN1CCN(CC/C=C/c2ccccc2)CC1 : pKi value = 7.54

Attribution: patent US6057371A
